Entry source: paper PMC12579162

Exercise: state measured IC50 for each of the compounds provided.
# Test system: CaCo2 cells
# Protocol details: MTT cell viability, CaCo2
# Type: cell-based
# Particulars: Homo sapiens, Caco-2; 48 h, MTT assay
Numeric only. Scale: µM

Reported IC50 (CaCo2 cells) for entry COCCOc1c(C)c(OC(=O)c2c(C)cc(OC)c(C)c2OC)cc(C)c1C(=O)OC [SB4] is 8.74

Reported IC50 (CaCo2 cells) for entry COc1cc(C)c(C(=O)Oc2cc(C)c(C(=O)O)c(O)c2C)c(OC)c1C [DA, diffractaic acid, reference compound] is 90.5

Reported IC50 (CaCo2 cells) for entry COCCCOc1c(C)c(OC(=O)c2c(C)cc(OC)c(C)c2OC)cc(C)c1C(=O)OC [SB5] is 2.77

----------
# System: HCT116 cells
# Protocol details: MTT cell viability, HCT116
# Format: cell-based
# Particulars: Homo sapiens, HCT-116; 48 h, MTT assay
Quantity: pIC50
Reminder that pIC50 is minus the log10 of a molar concentration.

Reported pIC50 (HCT116 cells) for entry COCCCOc1c(C)c(OC(=O)c2c(C)cc(OC)c(C)c2OC)cc(C)c1C(=O)OC [SB5] is 5.35

Reported pIC50 (HCT116 cells) for entry COc1cc(C)c(C(=O)Oc2cc(C)c(C(=O)O)c(O)c2C)c(OC)c1C [DA, diffractaic acid, reference compound] is 4.31

Reported pIC50 (HCT116 cells) for entry COCCOc1c(C)c(OC(=O)c2c(C)cc(OC)c(C)c2OC)cc(C)c1C(=O)OC [SB4] is 4.93

----------
Exercise: state measured Tmax for each of the compounds provided.
# Protocol details: Pharmacokinetic study in rat
# Assay type: in vivo, Sprague–Dawley rats
# Particulars: male, Sprague-Dawley, PO 10 mg/kg, plasma
# Method: The stock solution of SB4 and SB5 was prepared at a concentration of 1.0 mg/mL in DMSO. Additionally, the standard solutions for SB4 and SB5 were prepared by diluting with 60% ACN (0.1% formic acid) in distilled water (DW). […] The sample was ionized by an electrospray ionization source. […] The MRM transitions selected for quantification were m/z 375.075 to 150.100 for DA, m/z 447.113 to 415.200 for SB‐04, m/z 461.119 to 429.100 for SB‐05, and m/z 426.093 to 358.000 for the IS (Deucravacitinib). […]
Numeric only. Scale: h

The compound listed as COCCCOc1c(C)c(OC(=O)c2c(C)cc(OC)c(C)c2OC)cc(C)c1C(=O)OC [SB5] shows Tmax equal to 4.13

The compound listed as COCCOc1c(C)c(OC(=O)c2c(C)cc(OC)c(C)c2OC)cc(C)c1C(=O)OC [SB4] shows Tmax equal to 2.88

----------
# System: NIH3T3 cells
# Protocol details: MTT cell viability, NIH3T3
# Type: cell-based
# Particulars: Mus musculus, 48 h, MTT assay
Quantity: pIC50
Reminder that pIC50 is minus the log10 of a molar concentration.

The compound listed as COCCCOc1c(C)c(OC(=O)c2c(C)cc(OC)c(C)c2OC)cc(C)c1C(=O)OC shows pIC50 equal to 3.95

The compound listed as COCCOc1c(C)c(OC(=O)c2c(C)cc(OC)c(C)c2OC)cc(C)c1C(=O)OC shows pIC50 equal to 3.92
